Target: TLR10 (Homo sapiens, UniProt Q9BXR5)
Sequence (Q9BXR5 20-576): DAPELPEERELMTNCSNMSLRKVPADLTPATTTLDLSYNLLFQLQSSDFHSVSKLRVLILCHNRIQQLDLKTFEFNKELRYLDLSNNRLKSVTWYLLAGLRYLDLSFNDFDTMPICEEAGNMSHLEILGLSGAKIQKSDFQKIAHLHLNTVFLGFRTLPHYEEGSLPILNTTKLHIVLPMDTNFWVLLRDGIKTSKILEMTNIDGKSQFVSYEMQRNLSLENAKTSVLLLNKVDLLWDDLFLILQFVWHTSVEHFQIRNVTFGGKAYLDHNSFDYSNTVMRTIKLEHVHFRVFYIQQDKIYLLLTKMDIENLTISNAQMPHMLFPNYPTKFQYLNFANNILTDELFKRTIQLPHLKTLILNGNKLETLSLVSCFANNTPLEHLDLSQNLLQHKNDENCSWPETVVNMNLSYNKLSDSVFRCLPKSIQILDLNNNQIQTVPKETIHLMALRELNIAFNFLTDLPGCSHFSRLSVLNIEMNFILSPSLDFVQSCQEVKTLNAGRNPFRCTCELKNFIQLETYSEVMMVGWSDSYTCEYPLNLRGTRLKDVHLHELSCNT
Experiment: mRNA display affinity selection against TLR10, NGS abundance
Type: binding
Design: Chimera protein (extracellular domain, amino acid 20-576;); Fc (chimera); purchased R&D system #6619-TR-050
Settings: TLR10 selection pulldown (+); Top100 selection hits, NGS

RECORD_SEQUENCE	ASSAY_SYSTEM	Library fraction
TMQFPLQRRMAI	TLR10 (Homo sapiens, UniProt Q9BXR5)	0.00468
SIWFPLQRKIAA	TLR10 (Homo sapiens, UniProt Q9BXR5)	0.00746
SVSFPLQRKLVF	TLR10 (Homo sapiens, UniProt Q9BXR5)	0.00065
TLELQSVVLH	TLR10 (Homo sapiens, UniProt Q9BXR5)	0.00033
VGRVYIKSS	TLR10 (Homo sapiens, UniProt Q9BXR5)	0.00258
AQMYPIQNKIAF	TLR10 (Homo sapiens, UniProt Q9BXR5)	0.00064
STHIYSKQGIRG	TLR10 (Homo sapiens, UniProt Q9BXR5)	0.004
SIMFALQQKLLF	TLR10 (Homo sapiens, UniProt Q9BXR5)	0.004
IGKTYVKSC	TLR10 (Homo sapiens, UniProt Q9BXR5)	0.00027
SMEFVKIPLVIH	TLR10 (Homo sapiens, UniProt Q9BXR5)	0.00041
AFQRRDDFRWVI	TLR10 (Homo sapiens, UniProt Q9BXR5)	0.00019
SNIVWCGQGIIG	TLR10 (Homo sapiens, UniProt Q9BXR5)	0.168
SIVFHLTNKMAF	TLR10 (Homo sapiens, UniProt Q9BXR5)	0.004
CLGISNRIVVV	TLR10 (Homo sapiens, UniProt Q9BXR5)	0.00017
TMMFPRLGKVAY	TLR10 (Homo sapiens, UniProt Q9BXR5)	0.00528
VGYVLVKSS	TLR10 (Homo sapiens, UniProt Q9BXR5)	0.00033
AIRFSNVLAL	TLR10 (Homo sapiens, UniProt Q9BXR5)	0.00022
SKQVYHKQTIVG	TLR10 (Homo sapiens, UniProt Q9BXR5)	0.00063
MNPYSGNIVV	TLR10 (Homo sapiens, UniProt Q9BXR5)	0.00022
ALELKHVVVV	TLR10 (Homo sapiens, UniProt Q9BXR5)	0.00049
